B1: ALDH8A1 (parent)
chain: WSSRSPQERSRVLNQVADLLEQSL

- Variants of: B1
- procedureSummary: protein stability index of a GFP-peptide fusion (GPS, HEK-293T) (PSI 1-6); higher = more stable;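 further: lentivirally expressed fusions sorted by FACS into six bins by GFP to DsRed ratio, PSI derived from sequencing read proportions per bin multiplied by bin number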
- conditionSet: c terminus: a fixed tail appended
I would appreciate it if you labelled entries 1 when protein stability index is 3 or higher, otherwise -1.

Check out these entries, answers already filled in.
[in] Is reported protein stability index greater than or equal to 3 here: R11D
[out] 1

[in] Would you say S3E shows protein stability index at minimum 3?
[out] 1

[in] Given the entry S5P , answer whether its protein stability index meets or surpasses 3.
[out] -1

[in] // inclusive: protein stability index at least 3? input: W1G
[out] 1

[in] Is reported protein stability index greater than or equal to 3 here: Q15P
[out] 1

[in] Can N14R be said to have protein stability index at or above 3?
[out] 1

[in] Reported protein stability index reaches at least 3 for Q22F ?
[out] -1

[in] Assess whether reported protein stability index for R11W sits at 3 or higher.
[out] -1

[in] Could you verify whether the entry L20M shows protein stability index of no less than 3?
[out] 1

[in] For this variant, is measured protein stability index 3 or higher? S5F
[out] -1

Others:
[in] Does the variant P6S have recorded protein stability index that is 3 or more?
[out] -1

[in] Does the reported protein stability index for Q7S fall at or above the 3 mark?
[out] -1

[in] Record Q22Y ; criterion: protein stability index no lower than 3. Met?
[out] -1

[in] Confirm if protein stability index reported for the variant N14P is 3 or above.
[out] 1

[in] Exam item: decide whether the reported protein stability index for L24Q is at least 3.
[out] 1

[in] Hi, just wondering whether P6W shows protein stability index of 3 or higher.
[out] -1

[in] API: above_or_equal(metric=protein stability index, cutoff=3) for item L24M
[out] -1

[in] hey, is protein stability index for this one >= 3? V16R
[out] 1

[in] API: above_or_equal(metric=protein stability index, cutoff=3) for item L13F
[out] -1

[in] Is protein stability index for V16M at or above 3?
[out] -1

[in] Is protein stability index at least 3? Consider R9K
[out] -1

[in] Please tell me: is the variant V16K at or over 3 in terms of protein stability index?
[out] 1
